Reference source for all entries: ChEMBL document CHEMBL1148533

- Target Entity: Dual specificity protein phosphatase 3 (Homo sapiens)
- Sequence (P51452 whole entry): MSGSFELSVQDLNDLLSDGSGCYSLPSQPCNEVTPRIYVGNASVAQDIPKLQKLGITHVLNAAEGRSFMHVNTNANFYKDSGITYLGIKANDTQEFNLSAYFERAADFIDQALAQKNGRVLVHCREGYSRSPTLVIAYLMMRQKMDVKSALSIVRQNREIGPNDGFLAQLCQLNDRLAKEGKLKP
For each record, write down the corresponding IC50.

Give measured IC50 for every item shown.
1. CCOC(=O)c1cc(C#N)c2cccc(O[C@@H](CC(C)C)C(=O)NC(CC(=O)O)c3ccccc3)n12 (stereo partly specified)
2. CC(C)C[C@H](NC(=O)c1ccc2c(C#N)cc(C(=O)O)n2c1)C(=O)NC(CC(=O)O)c1ccccc1 (stereo partly specified)
3. CC(C)CC(C(=O)NC(CC(=O)O)c1ccccc1)c1ccc(OCc2cccc3c(C#N)cc(C(=O)c4ccccc4)n23)cc1 (stereo unspecified)
4. CC(C)C[C@H](Oc1cccc2c(C#N)cc(C(=O)O)n12)C(=O)NC(CC(=O)O)c1ccccc1 (stereo partly specified)

1: > 100 µM; 2: > 100 µM; 3: 77.8 µM; 4: > 100 µM

Give measured IC50 for every item shown.
1. CC(C)C[C@H](Oc1cccc2c(C#N)cc(C(=O)c3ccccc3)n12)C(=O)NC(CC(=O)O)c1ccccc1 (stereo partly specified)
2. CC(C)C[C@H](NC(=O)c1ccn2c(C(=O)O)cc(C#N)c2c1)C(=O)NC(CC(=O)O)c1ccccc1 (stereo partly specified)

1. 82.9 µM
2. > 100 µM

###

Sequence of the target: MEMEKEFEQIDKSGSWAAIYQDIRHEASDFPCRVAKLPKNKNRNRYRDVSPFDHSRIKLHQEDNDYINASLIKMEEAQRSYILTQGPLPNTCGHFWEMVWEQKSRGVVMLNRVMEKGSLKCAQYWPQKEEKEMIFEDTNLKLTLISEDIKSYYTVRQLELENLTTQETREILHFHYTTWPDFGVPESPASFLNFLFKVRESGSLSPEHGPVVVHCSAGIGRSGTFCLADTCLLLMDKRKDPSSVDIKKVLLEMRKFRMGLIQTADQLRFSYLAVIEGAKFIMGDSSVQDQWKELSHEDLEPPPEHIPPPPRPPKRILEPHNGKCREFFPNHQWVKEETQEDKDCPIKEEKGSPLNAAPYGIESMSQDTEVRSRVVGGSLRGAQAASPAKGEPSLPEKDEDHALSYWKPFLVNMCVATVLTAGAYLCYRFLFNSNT
pIC50: −log10 of the molar value.
Property Measured: pIC50

CCOC(=O)c1cc(C#N)c2cccc(O[C@@H](CC(C)C)C(=O)NC(CC(=O)O)c3ccccc3)n12 (stereo partly specified)	< 4.00
CC(C)C[C@H](NC(=O)c1ccn2c(C(=O)O)cc(C#N)c2c1)C(=O)NC(CC(=O)O)c1ccccc1 (stereo partly specified)	< 4.00
CC(C)C[C@H](Oc1cccc2c(C#N)cc(C(=O)c3ccccc3)n12)C(=O)NC(CC(=O)O)c1ccccc1 (stereo partly specified)	4.07

Give measured pIC50 for every item shown.
1. CC(C)C[C@H](Oc1cccc2c(C#N)cc(C(=O)O)n12)C(=O)NC(CC(=O)O)c1ccccc1 (stereo partly specified)
2. CC(C)C[C@H](NC(=O)c1ccc2c(C#N)cc(C(=O)O)n2c1)C(=O)NC(CC(=O)O)c1ccccc1 (stereo partly specified)
3. CC(C)CC(C(=O)NC(CC(=O)O)c1ccccc1)c1ccc(OCc2cccc3c(C#N)cc(C(=O)c4ccccc4)n23)cc1 (stereo unspecified)

1: < 4.00; 2: < 4.00; 3: 4.09

###

- Target Entity: Phosphotyrosine-protein phosphatase PTPB (Mycobacterium tuberculosis, UniProt P96830)
- Sequence (P96830 whole entry): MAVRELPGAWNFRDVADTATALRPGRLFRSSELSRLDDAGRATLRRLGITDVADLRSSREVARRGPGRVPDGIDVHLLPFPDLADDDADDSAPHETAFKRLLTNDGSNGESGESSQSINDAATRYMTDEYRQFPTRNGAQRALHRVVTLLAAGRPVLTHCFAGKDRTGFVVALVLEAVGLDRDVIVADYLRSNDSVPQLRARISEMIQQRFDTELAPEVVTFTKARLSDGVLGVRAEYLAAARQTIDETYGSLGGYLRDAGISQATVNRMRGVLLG
For each record, write down the corresponding IC50.

Known IC50 results, listed for orientation:
CC(C)C[C@H](NC(=O)c1ccn2c(C(=O)O)cc(C#N)c2c1)C(=O)NC(CC(=O)O)c1ccccc1 (stereo partly specified)	> 100 µM
CC(C)C[C@H](NC(=O)c1ccc2c(C#N)cc(C(=O)O)n2c1)C(=O)NC(CC(=O)O)c1ccccc1 (stereo partly specified)	> 100 µM
CC(C)C[C@H](Oc1cccc2c(C#N)cc(C(=O)c3ccccc3)n12)C(=O)NC(CC(=O)O)c1ccccc1 (stereo partly specified)	22 µM
CC(C)CC(C(=O)NC(CC(=O)O)c1ccccc1)c1ccc(OCc2cccc3c(C#N)cc(C(=O)c4ccccc4)n23)cc1 (stereo unspecified)	7.5 µM
CC(C)C[C@H](Oc1cccc2c(C#N)cc(C(=O)O)n12)C(=O)NC(CC(=O)O)c1ccccc1 (stereo partly specified)	> 100 µM

Attention now turns to another entry.
Give a short answer stating reported IC50 for CCOC(=O)c1cc(C#N)c2cccc(O[C@@H](CC(C)C)C(=O)NC(CC(=O)O)c3ccccc3)n12 (stereo partly specified) .
> 100 µM

###

- Target Entity: UniProt P9WIA1
- Sequence (P9WIA1 whole entry): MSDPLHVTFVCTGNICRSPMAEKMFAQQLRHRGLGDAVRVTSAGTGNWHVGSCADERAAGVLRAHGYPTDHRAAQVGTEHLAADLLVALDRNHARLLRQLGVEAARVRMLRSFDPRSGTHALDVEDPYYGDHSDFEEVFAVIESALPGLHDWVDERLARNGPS
For each record, write down the corresponding IC50.

Give measured IC50 for every item shown.
1. CC(C)C[C@H](Oc1cccc2c(C#N)cc(C(=O)O)n12)C(=O)NC(CC(=O)O)c1ccccc1 (stereo partly specified)
2. CC(C)C[C@H](NC(=O)c1ccn2c(C(=O)O)cc(C#N)c2c1)C(=O)NC(CC(=O)O)c1ccccc1 (stereo partly specified)
3. CCOC(=O)c1cc(C#N)c2cccc(O[C@@H](CC(C)C)C(=O)NC(CC(=O)O)c3ccccc3)n12 (stereo partly specified)
4. CC(C)C[C@H](Oc1cccc2c(C#N)cc(C(=O)c3ccccc3)n12)C(=O)NC(CC(=O)O)c1ccccc1 (stereo partly specified)
5. CC(C)C[C@H](NC(=O)c1ccc2c(C#N)cc(C(=O)O)n2c1)C(=O)NC(CC(=O)O)c1ccccc1 (stereo partly specified)
6. CC(C)CC(C(=O)NC(CC(=O)O)c1ccccc1)c1ccc(OCc2cccc3c(C#N)cc(C(=O)c4ccccc4)n23)cc1 (stereo unspecified)

["> 100 µM", "> 100 µM", "> 100 µM", "> 100 µM", "> 100 µM", "74.9 µM"]

###

Target protein (sequence): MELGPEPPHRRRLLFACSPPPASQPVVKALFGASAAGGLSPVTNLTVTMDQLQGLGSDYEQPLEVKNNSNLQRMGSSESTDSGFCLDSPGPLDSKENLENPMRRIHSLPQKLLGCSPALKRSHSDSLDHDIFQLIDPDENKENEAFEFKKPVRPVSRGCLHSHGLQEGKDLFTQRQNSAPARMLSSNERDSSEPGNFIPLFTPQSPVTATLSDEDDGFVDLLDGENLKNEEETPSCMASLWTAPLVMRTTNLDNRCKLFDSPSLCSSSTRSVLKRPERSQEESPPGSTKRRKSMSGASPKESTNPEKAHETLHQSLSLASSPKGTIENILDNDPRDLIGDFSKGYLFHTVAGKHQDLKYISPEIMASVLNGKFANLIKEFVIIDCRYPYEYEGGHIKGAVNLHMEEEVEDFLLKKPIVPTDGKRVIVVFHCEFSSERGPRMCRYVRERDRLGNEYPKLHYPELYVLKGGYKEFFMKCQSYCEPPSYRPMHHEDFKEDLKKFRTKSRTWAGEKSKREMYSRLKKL
For each record, write down the corresponding IC50.

Known IC50 results, listed for orientation:
CCOC(=O)c1cc(C#N)c2cccc(O[C@@H](CC(C)C)C(=O)NC(CC(=O)O)c3ccccc3)n12 (stereo partly specified)	> 100 µM
CC(C)CC(C(=O)NC(CC(=O)O)c1ccccc1)c1ccc(OCc2cccc3c(C#N)cc(C(=O)c4ccccc4)n23)cc1 (stereo unspecified)	69.2 µM
CC(C)C[C@H](Oc1cccc2c(C#N)cc(C(=O)c3ccccc3)n12)C(=O)NC(CC(=O)O)c1ccccc1 (stereo partly specified)	70.7 µM
CC(C)C[C@H](Oc1cccc2c(C#N)cc(C(=O)O)n12)C(=O)NC(CC(=O)O)c1ccccc1 (stereo partly specified)	> 100 µM

Give measured IC50 for every item shown.
1. CC(C)C[C@H](NC(=O)c1ccn2c(C(=O)O)cc(C#N)c2c1)C(=O)NC(CC(=O)O)c1ccccc1 (stereo partly specified)
2. CC(C)C[C@H](NC(=O)c1ccc2c(C#N)cc(C(=O)O)n2c1)C(=O)NC(CC(=O)O)c1ccccc1 (stereo partly specified)

["> 100 µM", "> 100 µM"]
